The reader will find reported pKd values listed item by item below.
Target: T1, RSV F glycoprotein (NUF4) (respiratory syncytial virus)
T1 chain 1: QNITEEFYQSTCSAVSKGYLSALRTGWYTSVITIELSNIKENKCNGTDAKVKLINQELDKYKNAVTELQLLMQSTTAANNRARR
T1 chain 2: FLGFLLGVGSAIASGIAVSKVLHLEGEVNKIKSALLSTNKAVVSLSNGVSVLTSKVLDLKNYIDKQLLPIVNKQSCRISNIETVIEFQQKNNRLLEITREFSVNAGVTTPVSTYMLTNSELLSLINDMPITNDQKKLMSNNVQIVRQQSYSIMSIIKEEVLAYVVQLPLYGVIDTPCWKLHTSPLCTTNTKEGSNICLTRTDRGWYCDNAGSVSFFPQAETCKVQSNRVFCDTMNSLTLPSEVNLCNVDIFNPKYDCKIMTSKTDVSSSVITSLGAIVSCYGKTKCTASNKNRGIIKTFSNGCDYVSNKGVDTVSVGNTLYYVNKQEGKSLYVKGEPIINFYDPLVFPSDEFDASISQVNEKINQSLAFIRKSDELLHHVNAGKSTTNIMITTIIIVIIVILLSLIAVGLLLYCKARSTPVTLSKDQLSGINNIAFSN
Assay: BIAcore, mAb vs NUF4 (2:1)
Notebook: values listed as pKd are -log10 of the concentration (mol/L).

Solved cases (2 shown):
{"columns": ["binder", "obsValue"],
 "data": [
  ["A17d4 (monoclonal antibody) (antibody, V domains shown, mAb with framework and constant regions of SYNAGIS) VH: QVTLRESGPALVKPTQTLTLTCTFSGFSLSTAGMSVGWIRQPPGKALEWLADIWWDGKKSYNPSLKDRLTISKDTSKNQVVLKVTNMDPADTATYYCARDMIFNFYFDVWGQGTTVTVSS VL: DIQMTQSPSTLSASVGDRVTITCLPSSRVGYMHWYQQKPGKAPKLLIYDTMYQASGVPSRFSGSGSGTEFTLTISSLQPDDFATYYCFQFSGYPFTFGGGTKLEIK", 8.95],
  ["P12f4 (monoclonal antibody) (antibody, V domains shown, mAb with framework and constant regions of SYNAGIS) VH: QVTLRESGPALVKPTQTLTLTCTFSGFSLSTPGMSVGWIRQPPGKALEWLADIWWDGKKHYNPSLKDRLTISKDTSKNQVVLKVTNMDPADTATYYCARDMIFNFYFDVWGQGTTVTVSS VL: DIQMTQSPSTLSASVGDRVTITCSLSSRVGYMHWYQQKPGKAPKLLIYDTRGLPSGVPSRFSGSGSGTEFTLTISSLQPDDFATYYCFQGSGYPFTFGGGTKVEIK", 8.63]
]}

In the following, a different binder is considered.
[ask] Query (binder): P12f2 (monoclonal antibody) (antibody, V domains shown, mAb with framework and constant regions of SYNAGIS; also called Pf12) VH: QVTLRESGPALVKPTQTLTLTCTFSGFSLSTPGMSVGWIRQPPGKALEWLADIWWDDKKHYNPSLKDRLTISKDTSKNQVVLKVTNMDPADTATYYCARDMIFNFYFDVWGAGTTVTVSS VL: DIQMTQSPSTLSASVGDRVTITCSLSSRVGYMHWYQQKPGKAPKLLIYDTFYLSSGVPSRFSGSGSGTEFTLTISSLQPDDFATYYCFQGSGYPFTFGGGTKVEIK ; field requested: pKd
[reply] 9.08
